Value source: patent US6506766B1

- experimental-target: human glucocorticoid receptor-α [GRX] isoform (Homo sapiens)
- Construct: host or cells: insect SF21 cells (baculovirus)
- protocol-summary: Radioligand binding with human glucocorticoid receptor cytosol ([3H]-dexamethasone competition)
- settings: GRX cytosol expressed in insect SF21 cells, [3H]-Dex ~0.9 nM, 4° C. overnight; Ki by Cheng-Prusoff, KL ~[…]; read-out: Ki (nM) GR
Here the recorded Ki is given for each entry.

Prompt: Hello, I am looking for reported Ki with human glucocorticoid receptor-α [GRX] isoform (Homo sapiens) for C=CCC1Oc2cccc(OC(F)(F)Br)c2-c2ccc3c(c21)C(C)=CC(C)(C)N3 (stereo not drawn) . Could you help?
Response: 54.8 nM

Prompt: Hello, I am looking for reported Ki with human glucocorticoid receptor-α [GRX] isoform (Homo sapiens) for `COc1c(O)ccc2c1-c1ccc3c(c1[C@H]([C@@H]1C=CCC1)O2)C(C)=CC(C)(C)N3` . Could you help?
Response: 0.39 nM

Prompt: Hello, I am looking for reported Ki with human glucocorticoid receptor-α [GRX] isoform (Homo sapiens) for COc1c(Br)cc(Br)c2c1-c1ccc3c(c1C(C1C=C(C)CCC1)O2)C(C)=CC(C)(C)N3 (stereo not drawn) . Could you help?
Response: 4.9 nM

###

- experimental-target: human glucocorticoid receptor-α [GRX] isoform (Homo sapiens, UniProt P04150)
- Construct: host or cells: insect SF21 cells (baculovirus)
- Sequence (P04150 whole entry, canonical isoform): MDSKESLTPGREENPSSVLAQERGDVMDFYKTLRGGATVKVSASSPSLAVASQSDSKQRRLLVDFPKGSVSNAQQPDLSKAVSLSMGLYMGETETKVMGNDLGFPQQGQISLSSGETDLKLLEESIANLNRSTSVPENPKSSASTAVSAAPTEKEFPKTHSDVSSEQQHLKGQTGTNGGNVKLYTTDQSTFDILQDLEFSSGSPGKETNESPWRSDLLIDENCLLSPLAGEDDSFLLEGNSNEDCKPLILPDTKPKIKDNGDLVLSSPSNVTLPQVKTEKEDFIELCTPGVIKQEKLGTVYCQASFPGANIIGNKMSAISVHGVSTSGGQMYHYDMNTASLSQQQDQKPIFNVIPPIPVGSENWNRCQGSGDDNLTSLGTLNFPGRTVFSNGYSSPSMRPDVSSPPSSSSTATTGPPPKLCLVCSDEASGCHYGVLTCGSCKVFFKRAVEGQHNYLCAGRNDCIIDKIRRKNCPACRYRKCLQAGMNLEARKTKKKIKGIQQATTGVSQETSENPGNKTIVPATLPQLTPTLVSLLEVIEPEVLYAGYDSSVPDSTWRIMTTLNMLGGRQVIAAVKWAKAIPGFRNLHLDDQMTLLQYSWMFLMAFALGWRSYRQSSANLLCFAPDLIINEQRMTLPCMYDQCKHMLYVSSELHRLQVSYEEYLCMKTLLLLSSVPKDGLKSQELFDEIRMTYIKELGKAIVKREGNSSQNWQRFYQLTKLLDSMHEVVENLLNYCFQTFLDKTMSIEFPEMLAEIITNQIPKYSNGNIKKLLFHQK
- protocol-summary: Radioligand binding with human glucocorticoid receptor cytosol ([3H]-dexamethasone competition)
- settings: GRX cytosol expressed in insect SF21 cells, [3H]-Dex ~0.9 nM, 4° C. overnight; Ki by Cheng-Prusoff, KL ~[…]; read-out: Ki (nM) GR
Here the recorded Ki is given for each entry.
A number alone suffices; assume nM.

Prompt: May I ask what Ki has been recorded for COc1cccc2c1-c1ccc3c(c1C(c1cccc(CCOC(=O)N(C)C)c1)O2)C(C)=CC(C)(C)N3 (stereo not shown) ?
Response: 6.5

Prompt: May I ask what Ki has been recorded for C=CCC1Oc2ccc(OC(=O)CCCN(C)C)c(OC)c2-c2ccc3c(c21)C(C)=CC(C)(C)N3 (stereo not shown) ?
Response: 0.85

Prompt: May I ask what Ki has been recorded for C=CCC1Oc2cccc(OC)c2-c2ccc3c(c21)C(C)=CC(CC)(CC)N3 (stereo not shown) ?
Response: 95.7

Prompt: May I ask what Ki has been recorded for COc1ccc(Br)c2c1-c1ccc3c(c1C(C1C=CCCC1)O2)C(C)=CC(C)(C)N3 (stereo not shown) ?
Response: 4.7

###

- experimental-target: human glucocorticoid receptor-α [GRX] isoform (Homo sapiens, UniProt P04150)
- Construct: host or cells: insect SF21 cells (baculovirus)
- protocol-summary: Radioligand binding with human glucocorticoid receptor cytosol ([3H]-dexamethasone competition)
- settings: GRX cytosol expressed in insect SF21 cells, [3H]-Dex ~0.9 nM, 4° C. overnight; Ki by Cheng-Prusoff, KL ~[…]; read-out: Ki (nM) GR
experimental-readout: Ki (nM)
A number alone suffices; assume nM.

Some solved entries appear below for comparison.
molecule	unit-of-measure	Ki
COc1c(O)ccc2c1-c1ccc3c(c1[C@@H]([C@H]1C=CCCC1)O2)C(C)=CC(C)(C)N3 [Example 285]	nM	436
C=CCNc1cc(C)cc(C2Oc3cccc(OC)c3-c3ccc4c(c32)C(C)=CC(C)(C)N4)c1 (stereo not shown) [Example 115]	nM	17
CC1=CC(C)(C)Nc2ccc3c(c21)[C@@H]([C@@H]1C=CCC1)Oc1ccc(O)c(Cl)c1-3 [Example 224]	nM	57
COc1cccc2c1-c1ccc3c(c1C(C(C)C)O2)C(C)=CC(C)(C)N3 (stereo not shown) [Example 58]	nM	9
C=CCC1Oc2ccc(C(=O)OC)c(OC)c2-c2ccc3c(c21)C(C)=CC(C)(C)N3 (stereo not shown) [Example 388]	nM	2.8
COc1cccc2c1-c1ccc3c(c1C(c1cccc(CCOS(C)(=O)=O)c1)O2)C(C)=CC(C)(C)N3 (stereo not shown) [Example 315]	nM	13
COc1cccc2c1-c1ccc3c(c1C(c1cccc(O)c1)O2)C(C)=CC(C)(C)N3 (stereo not shown) [Example 13]	nM	11.1
CC1=CC(C)(C)Nc2ccc3c(c21)/C(=C/c1ccccn1)Oc1ccc(O)c(Cl)c1-3 [Example 368]	nM	0.21

Prompt: May I ask what Ki has been recorded for CC/C=C/CC1Oc2cccc(OC)c2-c2ccc3c(c21)C(C)=CC(C)(C)N3 (stereo not shown) [Example 192] ?
Response: 3.1

Prompt: May I ask what Ki has been recorded for CC1=CC(C)(C)Nc2ccc3c(c21)C(c1ccccc1)Oc1cccc(C=O)c1-3 (stereo not shown) [Example 337] ?
Response: 3.3

Prompt: May I ask what Ki has been recorded for CC1=CC(C)(C)Nc2ccc3c(c21)[C@@H]([C@H]1C=CCC1)Oc1ccc(O)c(Cl)c1-3 [Example 225] ?
Response: 155

Prompt: May I ask what Ki has been recorded for C#CCOc1cccc2c1-c1ccc3c(c1C(c1ccccc1)O2)C(C)=CC(C)(C)N3 (stereo not shown) [Example 75] ?
Response: 7.3

Prompt: May I ask what Ki has been recorded for COc1c(O)ccc2c1-c1ccc3c(c1C(C1C=CCCC1)O2)C(C)=CC(C)(C)N3 (racemic) [Example 236] ?
Response: 0.89

Prompt: May I ask what Ki has been recorded for COc1cccc2c1-c1ccc3c(c1C(=Cc1cccc(Cl)n1)O2)C(C)=CC(C)(C)N3 [Example 352] ?
Response: 58

Prompt: May I ask what Ki has been recorded for COc1cccc2c1-c1ccc3c(c1C(CC(=O)N(C)C)O2)C(C)=CC(C)(C)N3 (stereo not shown) [Example 63] ?
Response: 511

Prompt: May I ask what Ki has been recorded for C=C(C)CC1Oc2ccc(O)c(OC)c2-c2ccc3c(c21)C(C)=CC(C)(C)N3 (stereo not shown) [Example 289] ?
Response: 0.73

###

- experimental-target: human progesterone receptor-A [PRA] isoform (Homo sapiens)
- Construct: host or cells: insect SF21 cells (baculovirus)
- Sequence (P06401 165-933): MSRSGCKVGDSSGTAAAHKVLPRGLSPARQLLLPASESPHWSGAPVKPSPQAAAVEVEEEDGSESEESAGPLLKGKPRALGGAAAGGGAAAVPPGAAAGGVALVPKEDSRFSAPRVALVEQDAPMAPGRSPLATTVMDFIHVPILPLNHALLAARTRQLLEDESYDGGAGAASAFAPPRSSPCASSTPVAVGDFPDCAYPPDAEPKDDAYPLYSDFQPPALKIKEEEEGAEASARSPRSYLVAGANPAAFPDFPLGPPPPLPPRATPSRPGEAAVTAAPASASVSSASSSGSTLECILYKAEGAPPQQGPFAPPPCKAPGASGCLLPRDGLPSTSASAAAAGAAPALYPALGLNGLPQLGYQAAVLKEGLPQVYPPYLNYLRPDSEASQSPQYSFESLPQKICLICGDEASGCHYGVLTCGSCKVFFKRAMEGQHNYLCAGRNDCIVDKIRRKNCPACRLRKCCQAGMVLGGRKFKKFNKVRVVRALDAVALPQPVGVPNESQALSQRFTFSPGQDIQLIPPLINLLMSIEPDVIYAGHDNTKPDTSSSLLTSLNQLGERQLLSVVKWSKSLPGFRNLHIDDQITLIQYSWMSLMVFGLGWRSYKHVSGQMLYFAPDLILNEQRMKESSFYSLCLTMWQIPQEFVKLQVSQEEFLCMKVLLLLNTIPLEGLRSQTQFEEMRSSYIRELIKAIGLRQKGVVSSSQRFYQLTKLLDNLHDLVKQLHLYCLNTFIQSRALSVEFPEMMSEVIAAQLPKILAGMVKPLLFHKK
- protocol-summary: Radioligand binding with human progesterone receptor cytosol ([3H]-progesterone competition)
- settings: PRA cytosol expressed in insect SF21 cells, [3H]Prog ~0.8 nM, 4° C. overnight; Ki by Cheng-Prusoff, KL ~4.5 nM; read-out: Ki (nM) PR
Here the recorded Ki is given for each entry.
A number alone suffices; assume nM.

molecule	unit-of-measure	Ki
C=CCC1Oc2ccc(OC(=O)CCC(=O)N3CCOCC3)c(OC)c2-c2ccc3c(c21)C(C)=CC(C)(C)N3 (stereo not drawn)	nM	204
COc1c(O)ccc2c1-c1ccc3c(c1[C@H]([C@H]1C=CCC1)O2)C(C)=CC(C)(C)N3	nM	42
COc1cccc2c1-c1ccc3c(c1C(C1C=C(CCl)CCC1)O2)C(C)=CC(C)(C)N3 (stereo not drawn)	nM	1840

Prompt: May I ask what Ki has been recorded for C=CCC1Oc2ccc(OC(=O)CCC(=O)N(CC)CC)c(OC)c2-c2ccc3c(c21)C(C)=CC(C)(C)N3 (stereo not drawn) ?
Response: 440

Prompt: May I ask what Ki has been recorded for CC1=CC(C)(C)Nc2ccc3c(c21)C(c1cc(F)c(F)c(F)c1)Oc1ccc(O)c(Cl)c1-3 (stereo not drawn) ?
Response: 734

Prompt: May I ask what Ki has been recorded for `CC1=CC(C)(C)Nc2ccc3c(c21)C(=Cc1ccccc1)Oc1ccc(O)c(Cl)c1-3` ?
Response: 6080

Prompt: May I ask what Ki has been recorded for `COc1cccc2c1-c1ccc3c(c1C(=Cc1c(F)cccc1F)O2)C(C)=CC(C)(C)N3` ?
Response: 9570

Prompt: May I ask what Ki has been recorded for COc1c(OC(=O)CCC(=O)N(C)C)ccc2c1-c1ccc3c(c1C(c1cccs1)O2)C(C)=CC(C)(C)N3 (stereo not drawn) ?
Response: 3940

###

- experimental-target: human glucocorticoid receptor-α [GRX] isoform (Homo sapiens)
- Construct: host or cells: insect SF21 cells (baculovirus)
- protocol-summary: Radioligand binding with human glucocorticoid receptor cytosol ([3H]-dexamethasone competition)
- settings: GRX cytosol expressed in insect SF21 cells, [3H]-Dex ~0.9 nM, 4° C. overnight; Ki by Cheng-Prusoff, KL ~[…]; read-out: Ki (nM) GR
experimental-readout: Ki (nM)
A number alone suffices; assume nM.

Some solved entries appear below for comparison.
molecule	Ki / nM
COc1c(O)ccc2c1-c1ccc3c(c1/C(=C/c1cccc(F)c1)O2)C(C)=CC(C)(C)N3 [Example 374]	9
COc1cccc2c1-c1ccc3c(c1C(c1cccc(-c4ccco4)c1)O2)C(C)=CC(C)(C)N3 (stereo not shown) [Example 112]	31
COc1c(OC(=O)CCC(=O)N(C)C)ccc2c1-c1ccc3c(c1C(c1cccs1)O2)C(C)=CC(C)(C)N3 (stereo not shown) [Example 425]	0.35
COc1c(O)ccc2c1-c1ccc3c(c1C(c1ccc(F)cc1)O2)C(C)=CC(C)(C)N3 (stereo not shown) [Example 255]	1.5
COc1cccc2c1-c1ccc3c(c1C(c1ccccc1)O2)C(C)=[N+]([O-])C(C)(C)N3 (stereo not shown) [Example 357]	59.8

Prompt: May I ask what Ki has been recorded for COc1c(O)ccc2c1-c1ccc3c(c1C(Cc1ccc(F)cc1)O2)C(C)=CC(C)(C)N3 (stereo not shown) [Example 445] ?
Response: 4

Prompt: May I ask what Ki has been recorded for C=CCC1Oc2cccc(COC)c2-c2ccc3c(c21)C(C)=CC(C)(C)N3 (stereo not shown) [Example 332] ?
Response: 18

Prompt: May I ask what Ki has been recorded for COc1ccc2c(c1OC)-c1ccc3c(c1C(C1C=CCCC1)O2)C(C)=CC(C)(C)N3 (stereo not shown) [Example 131] ?
Response: 7.71

Prompt: May I ask what Ki has been recorded for COc1cccc2c1-c1ccc3c(c1C(/C=C/CO)O2)C(C)=CC(C)(C)N3 (stereo not shown) [Example 181] ?
Response: 207

Prompt: May I ask what Ki has been recorded for C=CCC1Oc2ccc(OC(=O)CCC(C)=O)c(OC)c2-c2ccc3c(c21)C(C)=CC(C)(C)N3 (racemic) [Example 434] ?
Response: 0.96

Prompt: May I ask what Ki has been recorded for CNc1cccc2c1-c1ccc3c(c1C(c1cc(Cl)cc(Cl)c1)O2)C(C)=CC(C)(C)N3 (stereo not shown) [Example 73] ?
Response: 10.3

Prompt: May I ask what Ki has been recorded for C=CCC1Oc2cccc(OC(F)F)c2-c2ccc3c(c21)C(C)=CC(C)(C)N3 (stereo not shown) [Example 8] ?
Response: 168
